Data origin: patent US20240270821A1

- target_of_assay: hGLP-1R (Homo sapiens)
- Sequence (P43220 24-463): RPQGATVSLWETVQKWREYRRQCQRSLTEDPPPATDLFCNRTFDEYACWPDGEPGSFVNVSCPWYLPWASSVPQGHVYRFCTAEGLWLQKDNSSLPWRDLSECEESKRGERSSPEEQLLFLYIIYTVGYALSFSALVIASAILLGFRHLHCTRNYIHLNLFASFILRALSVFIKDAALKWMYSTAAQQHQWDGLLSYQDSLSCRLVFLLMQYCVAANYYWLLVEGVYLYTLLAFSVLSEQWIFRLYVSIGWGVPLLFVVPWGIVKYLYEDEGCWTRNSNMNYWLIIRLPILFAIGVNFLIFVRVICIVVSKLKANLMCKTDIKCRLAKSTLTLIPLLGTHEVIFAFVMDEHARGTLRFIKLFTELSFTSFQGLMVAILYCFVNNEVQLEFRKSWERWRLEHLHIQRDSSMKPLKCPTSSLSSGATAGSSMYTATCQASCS
- experimental_details: Functional cAMP activity in the presence of 1% HSA
- Format: cell-based
- assay_setup: read-out: cAMP Rel EC50, hGLP-1R
pEC50: −log10 of the molar value. Starred links: 1 amine or outer side, 2 acyl side, 3 side chain; linkers in the order of their positions; H or OH if unused. Non-standard residues stand in square brackets, D forms with d. Groups on a side chain read outwards from the residue. *: point of attachment. C18 diacid = O=C(O)CCCCCCCCCCCCCCCCC(=O)*; γGlu = O=C(O)[C@H](CCC(=O)[*:2])N[*:1]; αMe4Pal = C[C@](N)(Cc1ccncc1)C(=O)O; 4Pal = N[C@@H](Cc1ccncc1)C(=O)O; αMeL = CC(C)C[C@](C)(N)C(=O)O; Orn = NCCC[C@H](N)C(=O)O; AEEA = NCCOCCOCC(=O)O; Aib = CC(C)(N)C(=O)O
Each record here notes measured pEC50.

>  <substance>
H-Y[Aib]QGTFTSDFS[Orn][αMeL]LDKK([γGlu-AEEA-γGlu-C18 diacid])AQ[Aib]AFIEYLLE[Aib]GESSGAPPPSGS-NH2 [Example 244]

>  <pEC50>
6.19

$$$$
>  <substance>
H-Y[Aib]QGTFTSD[4Pal]S[Orn][αMeL]LDKK([AEEA-γGlu-C18 diacid])AQ[αMe4Pal]AFIEYLIE[Aib]GPSSGAPPPSGS-NH2 [Example 808]

>  <pEC50>
6.39

$$$$
>  <substance>
H-Y[Aib]QGTFTSD[4Pal]SQ[αMeL]LDKK([γGlu-γGlu-C18 diacid])AQ[αMe4Pal]AFIEYLIE[Aib]GPSSGAPPPSGE-NH2 [Example 882]

>  <pEC50>
6.44

$$$$
